- Test system: Mus musculus
- Test protocol: Phototoxic effect in UV light irradiated mouse assessed as number of mouse bearing erythema at 140 mg/kg, after 4 hrs relative to control
- Type: ADME, organism-based
- Set-up: dose 140 mg/kg
- Recorded conditions: in vivo
Experimental endpoint: Activity

Compound	Experimental endpoint	Result
CC1COc2c(N3CCC4(CC3)OCCO4)c(F)cc3c(=O)c(C(=O)O)cn1c23 (centres undefined)	Activity	Toxic
CC1COc2c(N3CCN(C(c4ccccc4)c4ccc(Cl)cc4)CC3)c(F)c([N+](=O)[O-])c3c(=O)c(C(=O)O)cn1c23 (centres undefined)	Activity	Non-toxic
CCn1cc(C(=O)O)c(=O)c2cc(F)c(N3CCNC(C)C3)c(F)c21 (centres undefined)	Activity	Toxic
CC1COc2c(N3CCSCC3)c(F)c([N+](=O)[O-])c3c(=O)c(C(=O)O)cn1c23 (centres undefined)	Activity	Non-toxic
